B1: HDV Ribozyme (parent)
chain: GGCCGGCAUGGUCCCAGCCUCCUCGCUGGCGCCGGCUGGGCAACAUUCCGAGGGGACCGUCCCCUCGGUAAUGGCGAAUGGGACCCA

variants of: B1; test: self-cleavage, relative activity (ratio to wild type); higher = more cleavage; co-transcriptional
Decision: self-cleavage >= 0.1 yields met, all other cases yield not met.

The examples below pair each entry with its known result.
C4A C63A: met
C15A A83U: not met
C41U A70U: met
G1A C36A: met

Check this variant for self-cleavage at or above 0.1: G10A C30A not met

Test whether the variant G25U G39A records self-cleavage of 0.1 or higher. not met

hey, is self-cleavage for this one >= 0.1? G59C C61A met

Would you say A8U U72G shows self-cleavage at minimum 0.1? met

API: above_or_equal(metric=self-cleavage, cutoff=0.1) for item C22G G74A not met
